# System: OVCAR-5 ovarian
# METHOD: NCI-60 one-dose screen, 48 h (100 = growth as untreated, 0 = no growth, -100 = all killed)
# TEST SETTINGS: 10 µM unless noted
# Method: Growth inhibition of the OVCAR-5 human tumor cell line is measured as a screen for anti-cancer activity. Cells are grown in 96 well plates and exposed to the test compound for 48 hours. Compounds are tested at a single concentration, which is 10^-5 M for most compounds. The reported endpoint is percent growth (GI% or GIPRCNT), where numbers from 0 - 100% represent growth inhibition, and numbers from -100% - 0 represent cell death. For example, a value of 40 represents 60% growth inhibition. […]
This is part of a sample that, as a whole, favours compounds with a hit. Of some 83,000 tested, about 20% had one in any assay.
EXPERIMENTAL ENDPOINT: growth (%)

| MOLECULE | EXPERIMENTAL ENDPOINT | READOUT UNITS | MEASURED RESULT |
| --- | --- | --- | --- |
| CCCCCCCCc1ccc(C(=O)Nc2cccc(P(=O)(O)O)c2)cc1 | growth | % | 116 |
| CC(=O)c1c(N)c(C#N)cn1-c1ccc(Cl)cc1Cl | growth | % | 100 |
| C=C1CC[C@@H]2[C@]3(C)COC(c4ccco4)O[C@@H]3CC[C@@]2(C)[C@@H]1C/C=C1/C(=O)OCC1OC(C)=O (stereo partly drawn) | growth | % | 35.8 |
| CC(C)CSc1nc(NCCc2c[nH]c3ccccc23)c(C#N)c(-c2ccc(Cl)cc2)n1 | growth | % | 80.5 |
| O=C1NC(=O)/C(=C/c2ccccc2OCc2cc3ccccc3nc2Cl)S1 | growth | % | 112 |
| CC(=O)Oc1ccccc1C(=O)[Se]CC(=O)Nc1cccc(C(F)(F)F)c1 | growth | % | -30.9 |
| O=c1oc2ccc(Br)cc2cc1C1=CSc2nc3sc4c(c3c(=O)n2N=C1)CCCC4 | growth | % | 102 |
| CC1(C)CC[C@]2(C(=O)Nc3ccc(Br)cc3)CC[C@]3(C)C(=CCC4[C@@]5(C)C[C@@H](O)[C@H](O)[C@@](C)(CO)C5CC[C@]43C)C2C1 (stereo partly drawn) | growth | % | -21.8 |
